Data provenance: PubChem BioAssay (NCI)

# Assay: NCI Yeast Anticancer Drug Screen. Data for the rad50 strain (AID 155);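 also: 0% = growth of vehicle-only cultures of the same strain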
# Particulars: S. cerevisiae rad50 strain growth inhibition; at 50.0 µM; stronger effect = higher value
This is part of a sample that, as a whole, favours compounds with a hit. Of some 79,000 tested, about 15% had one in any assay.
Value Kind: growth inhibition (%)
Your answer should be a plain number; it is taken to be in %.

Lab book: growth inhibition of CC(C)Oc1ccc(CCOC(=O)Nc2cccc3ccccc23)cc1 noted as -0.5

For record CC1=NN(C(=O)CC(=O)Nc2ccc(C(=O)O)cc2)C(=O)C1N=Nc1ccccc1C(=O)O (stereo unspecified) the listed growth inhibition is 18.1

The measured growth inhibition associated with CCSc1[nH]c2nc[nH]c(=O)c2c1C#N reads -8.1

The recorded growth inhibition for entry CC(=O)C1C(=O)C(=O)N(c2ccc(Br)cc2)C1=O (stereo unspecified) equals -33.5

Record summary for Cn1c(=O)c2[nH]c(/N=N/N3CCN(CCO)CC3)nc2n(C)c1=O : reported growth inhibition = 20.1

growth inhibition measured on CCOC(=O)NNC(=O)C1CSC(c2ccccc2)N1C(C)=O (stereo unspecified) = -52.5

====

# Assay: NCI Yeast Anticancer Drug Screen. Data for the rad50 strain (AID 155);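 also: 0% = growth of vehicle-only cultures of the same strain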
# Particulars: S. cerevisiae rad50 strain growth inhibition; at 50.0 µM
This is part of a sample that, as a whole, favours compounds with a hit. Of some 79,000 tested, about 15% had one in any assay. Activity calls are given as the source filed them. Rule as the data show it: active = growth inhibition above about 70%; inactive = the rest.
Assign a class; possible classes are t for active, f for inactive

// return assay outcome for COc1ccc(N=Cc2ccc([N+](=O)[O-])cc2)cc1 f

# fetch the recorded call for CCc1cc2ccccc2oc1=O here f

I'd appreciate the recorded outcome for COc1cc2oc(-c3ccc(O)cc3)c(OC3OC(C)C(O)C(O)C3O)c(=O)c2c(O)c1OC (configuration not stated) from this test. f

Identify the outcome logged in this assay for the compound shown: CC(=C\C=N\N(C)c1ccccc1)/C=C1\Cc2ccccc2C1=O f

Hey, what did the test say about Nc1c(S(=O)(=O)O)cc2cc(S(=O)(=O)O)ccc2c1N ? f

Hi, do you know how CCCCCCCCCCC(=O)OCC came out in this test? f

Any idea what this test logged for CC1=CC(CO)C2C(=O)NC(=O)C2C1C (configuration not stated) ? f

What did the test return for c1ccc(-c2nn(-c3ccccc3)[n+](-c3ccccc3)n2)cc1 ? f

// return assay outcome for OCCOc1ccc(OCCO)cc1 f

So what was the verdict on Cc1nnc2n1N=C(c1ccc(O)c(O)c1O)CS2 in this test? f

What did this assay record as the result for CC(C)=CCc1c(O)ccc(C(=O)C2C(c3c(O)cc(-c4cc5ccc(O)cc5o4)cc3O)C=C(C)CC2c2ccc(O)cc2O)c1O (configuration not stated) ? t

Hi, sorry to bother you, what did the test record for Cc1nc(C(F)(F)F)cc(=O)[nH]1 ? f

// param item: O=C(c1cc([N+](=O)[O-])cc([N+](=O)[O-])c1)N1CCCC1 ; yields the recorded call f

Which outcome was entered for the compound CCOC(=O)CC(=O)c1sc(SC)c(C#N)c1N in this test? f

Please share the test call associated with O=NNc1ccc(SSc2ccc(NN=O)cc2)cc1 . f

# fetch the recorded call for CCOC(=O)CCCCCCCCCCCCC1C=CCC1 (configuration not stated) here f

Returns: the outcome recorded for NC(CS(=O)Cc1ccccc1)C(=O)O (configuration not stated) in this assay. f

====

# Assay: NCI Yeast Anticancer Drug Screen. Data for the mec2-1 strain (AID 157)
# Particulars: S. cerevisiae mec2-1 strain, at 50.0 µM, stronger effect = higher value
The panel holds about 79,000 compounds, 15% with a hit somewhere; the sample as a whole holds those more often.
Value Kind: growth inhibition (%)
Hi! Could you send only the number? It should be in %, unit omitted.

Recorded growth inhibition (compound C1=C(c2ccccc2)C(OC2Oc3ccccc3C=C2c2ccccc2)Oc2ccccc21 (stereo unspecified) ): -2.15

Recorded growth inhibition (compound Cc1ccc(C(=O)/C=C\C=C\c2ccccc2)cc1 ): 27.7

Lab note: C=CCNC(=S)NCc1cccc2ccccc12 gave growth inhibition of 36.3

Item: CC1=CCCCC1O (stereo unspecified) | growth inhibition: 10.6

get_value(item= CCCC(=O)OCC1OC(n2ccc(N)nc2=O)C(OC(=O)CCC)C1OC(=O)CCC (stereo unspecified) , readout=growth inhibition) returns -22.4

Please fill in: growth inhibition reported for CN1C(=O)/C(=N/N(c2ccccc2)c2ccccc2)c2ccccc21 = 26.6

Lookup result for COc1ccc(C(O)C(NCc2ccccc2)c2ccccc2)cc1 (stereo unspecified) ; measured growth inhibition: -7.3

The measured growth inhibition associated with CCOc1ccc(/C(Cl)=C(\C=O)c2ccc(OC)c(OC)c2)cc1OCC reads -4.8

Value of growth inhibition reported for the compound Cc1ccc(S(=O)(=O)NCCCN(CCCNS(=O)(=O)c2ccc(C)cc2)S(=O)(=O)c2ccc(C)cc2)cc1 is -10.8

The recorded growth inhibition for COc1ccc(NC(=O)CC(=O)N2N=C(N(CCC#N)c3ccc(Cl)cc3)CC2c2ccccc2)cc1 (stereo unspecified) is -17

Notebook: COc1ccc(CCC(C)(O)c2ccccc2)cc1 (stereo unspecified) , growth inhibition read as -1.35

Summary for this compound, Cc1ccc(S(=O)(=O)OCC(C)(C)CC#N)cc1 : growth inhibition is 30.6

Kindly note the recorded growth inhibition for N=C1C(=O)C(=N)c2ccccc2-c2ccccc21 , which is -48.8

growth inhibition reading for S=C1SC(=Nc2ccccc2)C(=Nc2ccccc2)N1c1ccccc1 : -15.9

Given item CN(C)C(=O)/C=C/C(=O)O (tested in a mixture with another compound) , the value recorded as its growth inhibition is -10.3

Measured growth inhibition of CC(C)CNc1ncnc2[nH]ncc12 : -6.2

# compound N=C(N)SCC(O)C(O)CSC(=N)N (stereo unspecified) ; its growth inhibition = 4.4

The measured growth inhibition associated with C=CCOCn1ccc(N)nc1=O reads -0.55

// growth inhibition lookup, compound = O=C(Cc1ccc(Cl)cc1)c1ccccc1Cl , result: 2.75

Lookup result for Cc1nc([N+](=O)[O-])cn1CC(Cl)Cn1cc([N+](=O)[O-])nc1C ; measured growth inhibition: -12.4

Recorded growth inhibition (compound CC(=O)Oc1c(C(OC(C)=O)OC(C)=O)ccc([N+](=O)[O-])c1OC(C)=O ): 28.9

So, O=C1OCc2cccc3c2-c2c1cccc2C(=O)OC3 ? Its growth inhibition was -5.7

Noted for CC(=O)OC(C)(C)[C@@H]1CC[C@H](C)C2=C(C1)[C@@H](C)CC2 : its growth inhibition reads -30.9

// Cc1c(Cl)cc(C(C)(C)C)c(O)c1Cc1c(C)c(Cl)cc(C(C)(C)C)c1O : growth inhibition value = -8.3

Noted for Cc1ccc(S(=O)(=O)/C(C#N)=C/n2c(=S)[nH]c3ccc([N+](=O)[O-])cc32)cc1 : its growth inhibition reads -21.1

Measured growth inhibition of CCOc1ccc(N=Cc2cc(Br)ccc2O)cc1 : 0.6

Summary for this compound, COc1c2occc2c(S(=O)(=O)O)c2ccc(=O)oc12 : growth inhibition is 4.05

Please fill in: growth inhibition reported for O=C1c2ccccc2S(=O)(=O)c2cc(-c3nn[nH]n3)ccc21 = -29.8

growth inhibition for CC[O-].CC[O-].O=C1C=C([O-])C(=O)c2ccccc21.O=C1C=C([O-])C(=O)c2ccccc21.[Ti+4] is 14.3

// recorded growth inhibition for CC(=O)[C@H]1CC[C@@H]2[C@]1(C)CC=C1[C@]23C=C[C@]2(C[C@@H](O)CC[C@]12C)C(C(=O)O)C3C(=O)O (stereo partly specified) : -18

Kindly note the recorded growth inhibition for CCCCN(CCCC)CC(O)c1cc(-c2ccc(C(F)(F)F)cc2)nc(-c2ccc(C(F)(F)F)cc2)c1 (stereo unspecified) , which is 2.45

Entry Cc1cc(=O)oc2c1c(C)nn2-c1cccc(Cl)c1 , growth inhibition reported as -13.2

// growth inhibition value for Nc1c(-c2ccccc2[N+](=O)[O-])nc2ccccn12 : -43.5

Value of growth inhibition reported for the compound CSc1ccc(N=Cc2ccccc2O)cc1 is -40

Looking up O=C(O)C1(c2ccccc2)CC1 , I found its growth inhibition recorded as -7

The recorded growth inhibition for CC[N+](C)(CC)Cc1ccccc1[N+](=O)[O-] is -47.3

# growth inhibition (compound: CC1=Nc2ccccc2C1(C)C ) is 8.8

The measured growth inhibition associated with CC1=CC(=O)/C(=C/N2C(=O)CNC2=S)C(=O)O1 reads -37.1

// CCN(CC)CCCN1CC(=O)N2CCCCN2C(=O)C1 : growth inhibition value = -3.6

Documented growth inhibition of O=C(CC(=O)N(C(=O)/C=C\c1ccccc1)c1ccc(Cl)cc1)N1N=C(c2ccccc2)C(N=Nc2cccc([N+](=O)[O-])c2)C1=O (stereo unspecified) : 3.45

For reference, reported growth inhibition for CC(=O)Nc1cccnc1 stands at -3.85
